Taken from patent US20240270762A1.

Test system: N. gonorrhoeae WHO X
Test: Liquid broth MIC in Fastidious broth
Details: Neisseria gonorrhoeae, read-out: Minimum Inhibitory Concentration (MIC), N. gonorrhoeae WHO X
Assay metric: MIC

Molecule: CN1CCCN(C(=O)NC(C(=O)N[C@H]2Cc3cccc(C(=O)O)c3OB2O)c2ccc(P(=O)(O)O)cc2)C1=O (stereo partly shown)
Observed measurement: 16 to 32 µg/mL
//
Molecule: O=C(O)c1cccc2c1OB(O)[C@@H](NC(=O)C(NC(=O)[C@H]1CCCN1)c1ccc(P(=O)(O)O)cc1)C2 (stereo partly shown)
Observed measurement: 16 to 32 µg/mL
//
Molecule: CS(=O)(=O)N1CCN(C(=O)NC(C(=O)N[C@H]2Cc3cccc(C(=O)O)c3OB2O)c2ccc(P(=O)(O)O)c(F)c2)C1=O (stereo partly shown)
Observed measurement: < 1 µg/mL
//
Molecule: CCN1CCN(C(=O)NC(C(=O)N[C@H]2Cc3cccc(C(=O)O)c3OB2O)c2ccc(P(=O)(O)O)cc2F)C(=O)C1=O (stereo partly shown)
Observed measurement: 1 to 2 µg/mL
//
Molecule: CCN1CCN(C(=O)NC(C(=O)N[C@H]2Cc3cccc(C(=O)O)c3OB2O)c2ccc(CP(=O)(O)O)cc2)C(=O)C1=O (stereo partly shown)
Observed measurement: 1 to 2 µg/mL
//
Molecule: O=C(NCCCN1CCN(C(=O)NC(C(=O)N[C@H]2Cc3ccc(F)c(C(=O)O)c3OB2O)c2cc(F)c(O)c(O)c2Cl)C(=O)C1=O)c1nccs1 (stereo partly shown)
Observed measurement: > 64 µg/mL
//
Molecule: CCN1CCN(C(=O)N[C@@H](C(=O)N[C@H]2Cc3ccc(F)c(C(=O)O)c3OB2O)c2ccc(P(=O)(O)O)cc2)C(=O)C1=O (single isomer, unassigned)
Observed measurement: < 1 µg/mL
